- Measured On: T1, recombinant human cardiac troponin T (human, UniProt P45379 2-298)
- T1 construct: In the ECL assay the cTnT came from the Troponin T hs CalSet calibrator; also called cTnT; TnT
- Procedure Text: SPR (Biacore T200, 37 C), Fab captured, cTnT analyte
Parameter: Kd

What measured Kd goes with anti-cTnT Fab mutant 20 (V101Y + Y104F) (Fab, V domains shown, also called combination 20) VH: EVQLQQSGPELVKPGASVKMSCKASGYTFTDYYMKWVKQSHGKSLEWIGDINPNNGETFYNQKFKDKATLTVDKSSSTAYMQLNSLTSEDSAVYYCATRYFDFWGQGTTLTVSS VL: DIVLTQSPASLAVSLGQRATISCKASQSVDYDGTSYMNWFQQKAGQPPKRLIYAASNLESGIPARFSGRGSGTDFALNIHPVEEEDAATYYCQQSNEDPYTFGGGTKLEIK ?
1.1 nM
